Data origin, for the record: the supplement of paper PMC10567573

assay_info: protein stability index of a GFP-peptide fusion (GPS, HEK-293T) (PSI 1-6); higher = more stable;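 further: 24-mer peptide tiles fused after GFP, lentivirally expressed, FACS-sorted into six equal bins by GFP/DsRed ratio, decoded by Illumina sequencing, PSI is the read-weighted mean bin number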
applied_conditions: treatment: DMSO; c terminus: a fixed tail appended
test_readout: protein stability index

                    monomer_sequence  value_measured
0    FNNVVEQNFKNRESYPEDTVFYIP [DLC1]            3.01
1   TKLEERSRVKCDQYWPSRGTETHG [PTPRD]            3.97
2   VQGIGIPLVTAIEIVSIWILSFIL [EDNRA]            3.02
3    THHKLCTFILKNPPENSDSGTGKK [EIF5]            3.95
4   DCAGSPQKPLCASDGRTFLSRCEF [SMOC2]            3.05
5  NLLQPNFEAAFGTTPSTSSSSSFD [SNAP91]            4.11
